Assay: Antitubercular activity against Mycobacterium bovis BCG ATCC 35743 active stage measured on day 8 by nitrate reductase based two-fold dilution assay
Assay type: functional, Mycobacterium bovis BCG str. ATCC 35743
Conditions: Mycobacterium tuberculosis variant bovis BCG, ATCC 35743, 192 h
measured-quantity: IC50 (µg/mL)
Numbers only; they are read as µg/mL.

{"compound-smiles": "C/C(=N\\Nc1nc(-c2ccc(Cl)cc2)cs1)c1sc(C)nc1C", "unit-tag": "µg/mL", "IC50": 1.95}
{"compound-smiles": "C/C(=N\\NC(N)=S)c1sc(-c2ccccc2)nc1C", "unit-tag": "µg/mL", "IC50": 0.94}
{"compound-smiles": "COc1ccc(-c2csc(N/N=C(\\C)c3sc(-c4ccccc4)nc3C)n2)cc1", "unit-tag": "µg/mL", "IC50": 2.43}
{"compound-smiles": "C/C(=N\\Nc1nc(-c2ccccc2)cs1)c1sc(C)nc1C", "unit-tag": "µg/mL", "IC50": 11.6}
{"compound-smiles": "COc1ccc(-c2csc(N/N=C(\\C)c3sc(C)nc3C)n2)cc1", "unit-tag": "µg/mL", "IC50": 7.37}

Shift focus to the following entry.
Tell me its IC50 given `C/C(=N\NC(N)=S)c1sc(C)nc1C` as the entry.
4.42

###

Assay: Cytotoxicity against human HCT116 cells by MTT assay
Assay type: toxicity, cell-based, HCT-116
Conditions: hct-116
measured-quantity: GI90

Worked examples, 5 compounds total:
{"compound": "C/C(=N\\Nc1nc(-c2ccc(F)cc2)cs1)c1sc(-c2ccccc2)nc1C", "GI90": "> 100 µg/mL"}
{"compound": "COc1ccc(-c2csc(N/N=C(\\C)c3sc(-c4ccccc4)nc3C)n2)cc1", "GI90": "> 100 µg/mL"}
{"compound": "C/C(=N\\Nc1nc(-c2ccc(Br)cc2)cs1)c1sc(-c2ccccc2)nc1C", "GI90": "> 100 µg/mL"}
{"compound": "C/C(=N\\Nc1nc(-c2ccc(Br)cc2)cs1)c1sc(C)nc1C", "GI90": "> 100 µg/mL"}
{"compound": "C/C(=N\\Nc1nc(-c2ccccc2)cs1)c1sc(C)nc1C", "GI90": "> 100 µg/mL"}

Please report GI90 for the following compound: `COc1ccc(-c2csc(N/N=C(\C)c3sc(C)nc3C)n2)cc1`
> 100 µg/mL

Fill in reported GI90 for this entry: `C/C(=N\Nc1nc(-c2ccccc2)cs1)c1sc(-c2ccccc2)nc1C`
> 100 µg/mL

Consider the compound `C/C(=N\NC(N)=S)c1sc(C)nc1C` . State its measured GI90.
> 100 µg/mL

Query GI90 for `C/C(=N\Nc1nc(-c2ccc(F)cc2)cs1)c1sc(C)nc1C`
> 100 µg/mL

Tell me its GI90 given `C/C(=N\Nc1nc(-c2ccc(Cl)cc2)cs1)c1sc(-c2ccccc2)nc1C` as the entry.
> 100 µg/mL

For the compound CC(=O)O[C@H]1C(=O)[C@@]2(C)[C@H]([C@H](OC(=O)c3ccccc3)[C@]3(O)C[C@H](OC(=O)[C@H](O)[C@@H](NC(=O)c4ccccc4)c4ccccc4)C(C)=C1C3(C)C)[C@]1(OC(C)=O)CO[C@@H]1C[C@@H]2O [PACLITAXEL] , report GI90.
5.21 µg/mL

Annotate the compound `C/C(=N\Nc1nc(-c2ccc(Cl)cc2)cs1)c1sc(C)nc1C` with its measured GI90.
> 100 µg/mL

Determine from records and report GI90 for `C/C(=N\Nc1nc(-c2ccc(C)cc2)cs1)c1sc(C)nc1C`
> 100 µg/mL

Identify measured GI90 corresponding to `C/C(=N\Nc1nc(-c2ccc(C)cc2)cs1)c1sc(-c2ccccc2)nc1C`
> 100 µg/mL

Note down GI90 recorded for `C/C(=N\NC(N)=S)c1sc(-c2ccccc2)nc1C`
> 100 µg/mL

Name the recorded GI90 of the compound listed here: CO[C@H]1/C=C/O[C@@]2(C)Oc3c(C)c(O)c4c(O)c(c(/C=N/N5CCN(C)CC5)c(O)c4c3C2=O)NC(=O)/C(C)=C\C=C\[C@H](C)[C@H](O)[C@@H](C)[C@@H](O)[C@@H](C)[C@H](OC(C)=O)[C@@H]1C [RIFAMPIN]
> 100 µg/mL

###

Assay: Selectivity index, ratio of GI50 for human HCT116 cells to MIC90 for Mycobacterium bovis BCG ATCC 35743 active stage
Format: toxicity, cell-based, HCT-116
Conditions: read-out: Selectivity Index
measured-quantity: selectivity ratio
Just the number, please.

Here are 5 compounds together with their reported answers.
{"compound-smiles": "C/C(=N\\Nc1nc(-c2ccc(C)cc2)cs1)c1sc(C)nc1C", "selectivity ratio": 1}
{"compound-smiles": "C/C(=N\\NC(N)=S)c1sc(-c2ccccc2)nc1C", "selectivity ratio": 16}
{"compound-smiles": "C/C(=N\\NC(N)=S)c1sc(C)nc1C", "selectivity ratio": 1}
{"compound-smiles": "C/C(=N\\Nc1nc(-c2ccc(Cl)cc2)cs1)c1sc(-c2ccccc2)nc1C", "selectivity ratio": 1}
{"compound-smiles": "C/C(=N\\Nc1nc(-c2ccc(F)cc2)cs1)c1sc(-c2ccccc2)nc1C", "selectivity ratio": 1}

Output measured selectivity ratio for this item: `COc1ccc(-c2csc(N/N=C(\C)c3sc(C)nc3C)n2)cc1`
1

Determine from records and report selectivity ratio for `C/C(=N\Nc1nc(-c2ccccc2)cs1)c1sc(-c2ccccc2)nc1C`
5

State, in one line, measured selectivity ratio of `C/C(=N\Nc1nc(-c2ccc(C)cc2)cs1)c1sc(-c2ccccc2)nc1C`
5

###

Tested on: Escherichia coli
Experiment: Growth inhibition of Escherichia coli at 10 ug/ml
Assay type: functional
Conditions: read-out: GI
Reported inhibition of growth at 10 µg/mL by item:
Report the value in % with no unit label.

Below are worked cases with known answers.
{"compound-smiles": "C/C(=N\\Nc1nc(-c2ccccc2)cs1)c1sc(-c2ccccc2)nc1C", "measured-quantity": "inhibition of growth at 10 µg/mL", "numeric-readout": 56.6}
{"compound-smiles": "C/C(=N\\Nc1nc(-c2ccccc2)cs1)c1sc(C)nc1C", "measured-quantity": "inhibition of growth at 10 µg/mL", "numeric-readout": 83.7}
{"compound-smiles": "COc1ccc(-c2csc(N/N=C(\\C)c3sc(C)nc3C)n2)cc1", "measured-quantity": "inhibition of growth at 10 µg/mL", "numeric-readout": 74.3}
{"compound-smiles": "COc1ccc(-c2csc(N/N=C(\\C)c3sc(-c4ccccc4)nc3C)n2)cc1", "measured-quantity": "inhibition of growth at 10 µg/mL", "numeric-readout": 71.1}
{"compound-smiles": "C/C(=N\\Nc1nc(-c2ccc(C)cc2)cs1)c1sc(C)nc1C", "measured-quantity": "inhibition of growth at 10 µg/mL", "numeric-readout": 83.3}

Okay, next one:
Kindly indicate its recorded inhibition of growth at 10 µg/mL. Item: `C/C(=N\Nc1nc(-c2ccc(Br)cc2)cs1)c1sc(C)nc1C`
70.7

###

Assay: Cytotoxicity against human THP1 cells by MTT assay
Type: toxicity, cell-based, THP-1
Conditions: thp-1
Catalogue of GI90 readings, one per entry.

Supply recorded GI90 for `C/C(=N\Nc1nc(-c2ccc(Cl)cc2)cs1)c1sc(C)nc1C` here.
> 100 µg/mL

Give the reported value of GI90 for this record: `C/C(=N\NC(N)=S)c1sc(C)nc1C`
> 100 µg/mL

State, in one line, measured GI90 of `C/C(=N\Nc1nc(-c2ccccc2)cs1)c1sc(C)nc1C`
> 100 µg/mL

Fill in reported GI90 for this entry: `COc1ccc(-c2csc(N/N=C(\C)c3sc(C)nc3C)n2)cc1`
> 100 µg/mL

Quickly give me recorded GI90 for `C/C(=N\Nc1nc(-c2ccc(Br)cc2)cs1)c1sc(C)nc1C`
> 100 µg/mL

Output measured GI90 for this item: `CC(=O)O[C@H]1C(=O)[C@@]2(C)[C@H]([C@H](OC(=O)c3ccccc3)[C@]3(O)C[C@H](OC(=O)[C@H](O)[C@@H](NC(=O)c4ccccc4)c4ccccc4)C(C)=C1C3(C)C)[C@]1(OC(C)=O)CO[C@@H]1C[C@@H]2O`
5.814 µg/mL

Check the records and state GI90 for `C/C(=N\Nc1nc(-c2ccc(C)cc2)cs1)c1sc(-c2ccccc2)nc1C`
> 100 µg/mL

###

We begin with a simple list: items and their reported selectivity ratio.
Experiment: Selectivity index, ratio of GI50 for human THP1 cells to MIC90 for Mycobacterium bovis BCG ATCC 35743 dormant stage
Assay type: toxicity, cell-based, THP-1
Settings: read-out: Selectivity Index

Look over these answered cases.
{"compound-smiles": "C/C(=N\\Nc1nc(-c2ccc(C)cc2)cs1)c1sc(-c2ccccc2)nc1C", "result": 2}
{"compound-smiles": "C/C(=N\\Nc1nc(-c2ccccc2)cs1)c1sc(C)nc1C", "result": 26}
{"compound-smiles": "COc1ccc(-c2csc(N/N=C(\\C)c3sc(-c4ccccc4)nc3C)n2)cc1", "result": 7}
{"compound-smiles": "C/C(=N\\Nc1nc(-c2ccc(Br)cc2)cs1)c1sc(C)nc1C", "result": 9}
{"compound-smiles": "C/C(=N\\Nc1nc(-c2ccc(F)cc2)cs1)c1sc(-c2ccccc2)nc1C", "result": 1}

Provide measured selectivity ratio value, entry: `C/C(=N\NC(N)=S)c1sc(-c2ccccc2)nc1C`
24

Identify selectivity ratio associated with the molecule `C/C(=N\NC(N)=S)c1sc(C)nc1C`
1

Entry `C/C(=N\Nc1nc(-c2ccccc2)cs1)c1sc(-c2ccccc2)nc1C` needs its selectivity ratio filled in; supply it.
5

Read the entry `C/C(=N\Nc1nc(-c2ccc(F)cc2)cs1)c1sc(C)nc1C` and write its reported selectivity ratio.
10

Give selectivity ratio for the following molecule: `C/C(=N\Nc1nc(-c2ccc(C)cc2)cs1)c1sc(C)nc1C`
10

Identify selectivity ratio associated with the molecule `COc1ccc(-c2csc(N/N=C(\C)c3sc(C)nc3C)n2)cc1`
12

Fill in selectivity ratio for record `C/C(=N\Nc1nc(-c2ccc(Cl)cc2)cs1)c1sc(-c2ccccc2)nc1C`
1

Please supply the value of reported selectivity ratio for the item `C/C(=N\Nc1nc(-c2ccc(Cl)cc2)cs1)c1sc(C)nc1C`
6
